# Tested on: HTT mRNA
# PROCEDURE DETAILS: Splicing assay (RT-qPCR) monitoring HTT splice variants, canonical (CJ) and alternative (AJ) junction
# Type: cell-based
# RUN PARAMETERS: increase in AJ mRNA, 50% response, A673 or K562 cell line, 24 hours
Counter-ions that a name gives are not always drawn.
VALUE KIND: AC50

>>> print(df.to_string())
                                    compound  value_kind       result
 0  Cc1cn2nc(-c3cc4cn(C5CCNCC5)nc4s3)cc(C)c2n1        AC50     < 0.1 µM
 1  Cc1nc2c(F)cc(-c3nc4sc(C5CCNCC5)cc4s3)cc2o1        AC50     < 0.1 µM
 2  Cn1cc2cc(-c3nc4sc(N5CCN6CCCC6C5)cc4s3)cc(F)c2n1 (stereo not shown)        AC50  0.1 to 1 µM
 3  Cn1cc2c(O)c(-c3nc4sc(C5CCNCC5)cc4s3)ccc2n1        AC50   1 to 10 µM
 4  Cc1cn2cc(-n3cc4sc(C5CCNCC5)cc4n3)cc(F)c2n1        AC50  0.1 to 1 µM
 5  Cc1cn2cc(-n3cc4cc(C5CCNCC5)sc4n3)cc(F)c2n1        AC50  0.1 to 1 µM
 6  Cn1cc2cc(-c3nc4sc(N5CCC6(CCN6)C5)cc4s3)cc(F)c2n1 (stereo not shown)        AC50   1 to 10 µM
 7   Cc1cn2cc(-c3cc4cn(C5CCNCC5)nc4s3)ncc2n1        AC50   1 to 10 µM
 8   Cc1cn2cc(-n3cc4cc(C5CCNCC5)sc4n3)ncc2n1        AC50  0.1 to 1 µM
 9  Cc1cn2cc(-c3cc4cn(C5CCNCC5)nc4s3)cc(C)c2n1        AC50     < 0.1 µM
10  Cc1cn2nc(-n3cc4sc(C5CCNCC5)cc4n3)cc2c(C)n1        AC50  0.1 to 1 µM
11         c1n[nH]cc1-n1cc2cc(C3CCNCC3)sc2n1        AC50      > 10 µM
12  Cn1cc2cc(-c3cc4cn(C5CCNCC5)nc4s3)c(O)c(F)c2n1        AC50  0.1 to 1 µM
13  Cn1cc2cc(-c3nc4sc(N5CCC56CCNCC6)cc4s3)cc(F)c2n1        AC50      > 10 µM
14  Cn1cc2cc(-c3nc4sc(N5CCNCC5)c(Cl)c4s3)cc(F)c2n1        AC50  0.1 to 1 µM
15  Cn1cc2cc(-c3nc4sc(N5CCNCC5)cc4s3)cc(F)c2n1        AC50     < 0.1 µM
16  Cc1cn2nc(-c3cc4cn(C5CCNCC5)nc4s3)c(O)c2c(C)n1 [Compound 213, hydrochloride]        AC50   1 to 10 µM
17  Cc1nc2c(F)cc(-n3cc4sc(C5CCNCC5)cc4n3)cc2s1        AC50   1 to 10 µM
18  Cc1cn2cc(-n3cc4sc(C5CCNCC5)cc4n3)cc(Cl)c2n1        AC50  0.1 to 1 µM
